Test system: HOP-92 NSCLC
ASSAY: NCI-60 one-dose screen, 48 h (100 = growth as untreated, 0 = no growth, -100 = all killed)
TEST_CONDITIONS: 10 µM unless noted
Protocol: Growth inhibition of the HOP-92 human Non-Small Cell Lung tumor cell line is measured as a screen for anti-cancer activity. Cells are grown in 96 well plates and exposed to the test compound for 48 hours. Compounds are tested at a single concentration, which is 10^-5 M for most compounds. The reported endpoint is percent growth (GI% or GIPRCNT), where numbers from 0 - 100% represent growth inhibition, and numbers from -100% - 0 represent cell death. […]
About 83,000 compounds went through this panel and 20% of them were active in at least one assay; those are over-represented in the sample as a whole.
RECORDED_ENDPOINT: growth (%)

[[record]]
smiles = "CCn1cc(CNc2ccc(C(=O)Nc3cc4cc(OC)c(OC)cc4c(C)n3)cc2)c(C)n1"
recorded_number = 78.6

[[record]]
smiles = "CCN(CC)CCN(CCN(CC)CC)c1ccccc1"
recorded_number = 67.3

[[record]]
smiles = "O=C(CCCCNC(=O)c1cc(=O)c(O)co1)Nc1ccccc1"
recorded_number = 59.1

[[record]]
smiles = "Cn1cc(C(=O)c2nc(-c3c[nH]c4ccc(Br)cc34)no2)c2cc(Br)ccc21"
recorded_number = 83.9

[[record]]
smiles = "COc1cc(/C=C2\\CN(S(=O)(=O)c3ccc(C)cc3)C/C(=C\\c3cc(CN4CCCCC4)c(O)c(OC)c3)C2=O)cc(CN2CCCCC2)c1O"
recorded_number = -75.3

[[record]]
smiles = "CC1(C)CC[C@]2(C(=O)O)CC[C@]3(C)C(=CC[C@@H]4[C@@]5(C)C[C@@H](Cc6cn([C@@H]7O[C@H](CO)[C@@H](O)[C@H](O)[C@H]7O)nn6)[C@H](O)C(C)(C)[C@@H]5CC[C@]43C)[C@@H]2C1"
recorded_number = 102

[[record]]
smiles = "CN1CCCc2cc(/C=C3/SC(=S)N(CCc4ccc(O)cc4)C3=O)ccc21"
recorded_number = 48.3

[[record]]
smiles = "NS(=O)(=O)c1ccc(N/C=C/C(=O)c2cc3ccccc3oc2=O)cc1"
recorded_number = 76.1

